# Tested on: T1, SH2 domain of Crkl protein (residues 1-111), H33A variant (UniProt P46109 1-111, H33A)
# T1 construct: Crkl adaptor protein, SH2 domain, residues 1-111, His33 replaced by alanine; Site-directed mutant of m1 (QuikChange); source: E. coli BL21 (DE3), purified (HisTrap nickel column, desalting); not shown: His tag, N-terminal, kept
# T1 sequence (P46109 1-111 H33A): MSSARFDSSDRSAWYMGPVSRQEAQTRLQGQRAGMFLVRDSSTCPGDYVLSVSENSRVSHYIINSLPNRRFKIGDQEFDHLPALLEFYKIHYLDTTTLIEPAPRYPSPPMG
# Assay protocol: stopped-flow fluorescence kinetics (FRET); dansyl-Pax112-123 constant at 2 μM mixed with Crkl-SH2 2 to 10 μM (pseudo-first-order, kon); koff by displacement of the preincubated 2 µM complex with excess non-dansylated Pax112-123 (30 μM); 283 K; 50 mM sodium-HEPES pH 7.5, 0.5 M NaCl
# Study conditions: both partners purified
Square brackets hold non-standard residues; d marks the D form. Ends that are not written are not given here. * marks the point of attachment. pY = N[C@@H](Cc1ccc(OP(=O)(O)O)cc1)C(=O)O; Dansyl = CN(C)c1cccc2c(S(=O)(=O)*)cccc12
Experimental endpoint: pKd
One number for each entry, as −log10 of the molar value.

Problem: Tell me the measured pKd of Dansyl-GEEEHV[pY]SFPNK (The dansyl group is the FRET acceptor of Trp14 of the SH2 domain; source: synthetic peptide, bought: GenScript) [dansylated Pax_(112–123) peptide (Dans-GEEEHV-pY-SFPNK)] , please.
Solution: 5.64

Source listed as paper PMC9332313.
